The measured values listed here are drawn from PubChem BioAssay.

# TEST DESCRIPTION: stimulators of insulin release from INS-1E, primary screen, cell-based, 5 mM glucose, NPC library (AID 1117329); note: reference of the scale not given here
# TEST SETTINGS: rat INS-1E insulin secretion, at 10 µM, active compounds read high
// reported insulin secretion stimulation per item
Entry rule: numbers only, all in %.

INSERT INTO results (molecule, result) VALUES
  ('COC(=O)[C@@H]1[C@H]2C[C@H]3c4[nH]c5ccccc5c4CCN3C[C@@H]2CC[C@@H]1O', 1.1),
  ('CC(N)C(=O)OC(C)(C)Cc1ccc(Cl)cc1 (stereo not given)', 4.8),
  ('CC(=O)OCC(=O)[C@@]1(O)[C@H](C)C[C@H]2[C@@H]3CCC4=CC(=O)C=C[C@]4(C)[C@@]3(F)[C@@H](O)C[C@@]21C', 0.55),
  ('C[C@H]1COc2c(C3(N)CC3)c(F)cc3c(=O)c(C(=O)O)cn1c23', -0.9),
  ('COc1cc2c(Nc3ccc(Br)cc3F)ncnc2cc1OCC1CCN(C)CC1', 2.4),
  ('Nc1ccc(S(=O)(=O)Nc2nccs2)cc1', -1.1),
  ('CCOC(=O)C1=C[C@]2(CC)CCCN3CCc4c(n1c1ccccc41)[C@@H]32', -1.7),
  ('Nc1nnc(-c2cccc(Cl)c2Cl)c(N)n1', -0.4),
  ('C[C@]12CCC(=O)C=C1CC[C@@H]1[C@@H]2[C@@H](O)C[C@@]2(C)[C@H]1CC[C@]2(O)C(=O)COP(=O)(O)O', 1.8);

Ask | GET /values?readout=insulin secretion stimulation&item= O=C(O)c1cc(O)c(O)c(O)c1
Reply | -0.6

* * *

# TEST DESCRIPTION: compounds altering viability of human ES cells (AID 493140);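 note: cells exposed to compounds for four days before counting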
# TEST SETTINGS: human embryonic stem cell survival screen; active compounds read high
PROPERTY MEASURED: survival
Reply with just the number.

Look over these answered cases.
INSERT INTO assay_data (molecule, property_measured, result) VALUES
  ('CC1(C)S[C@@H]2[C@H](NC(=O)[C@H](N)c3ccccc3)C(=O)N2[C@H]1C(=O)O', 'survival', 14.2),
  ('CC(C)COCC(CN(Cc1ccccc1)c1ccccc1)N1CCCC1 (configuration not stated)', 'survival', 5.92),
  ('CN(C)CCC(c1ccccc1)c1ccccn1 (configuration not stated)', 'survival', 15),
  ('CCn1cc(C(=O)O)c(=O)c2cnc(N3CCNCC3)nc21', 'survival', 5.25),
  ('COc1cc(NS(=O)(=O)c2ccc(N)cc2)ncn1', 'survival', 3.67);

Ask | GET /values?readout=survival&item= COc1cc2nc(N3CCN(C(=O)C4CCCO4)CC3)nc(N)c2cc1OC (configuration not stated)
Reply | 3.75

Ask | GET /values?readout=survival&item= CCCCCN(CCCCC)C(=O)C(CCC(=O)O)NC(=O)c1ccc(Cl)c(Cl)c1 (configuration not stated)
Reply | 1.92

Ask | GET /values?readout=survival&item= NC(N)=NS(=O)(=O)c1ccc(N)cc1
Reply | 11.5

Ask | GET /values?readout=survival&item= C[C@]12CC[C@@H]3c4ccc(O)cc4CC[C@H]3[C@@H]1CCC2=O
Reply | 2.5

Ask | GET /values?readout=survival&item= CCN(CC)CCOC(=O)C(c1ccccc1)c1ccccc1
Reply | 11.2

Ask | GET /values?readout=survival&item= NC(CO)C(=O)NNCc1ccc(O)c(O)c1O (configuration not stated)
Reply | 2.42

Ask | GET /values?readout=survival&item= CCOc1ccc(NC(C)=O)cc1
Reply | 8.75
